- system_tested: T1, SIAH1-SBD (substrate-binding domain of E3 ubiquitin-protein ligase SIAH1, residues 89-282) (human, UniProt Q8IUQ4-1 89-282)
- T1 chain: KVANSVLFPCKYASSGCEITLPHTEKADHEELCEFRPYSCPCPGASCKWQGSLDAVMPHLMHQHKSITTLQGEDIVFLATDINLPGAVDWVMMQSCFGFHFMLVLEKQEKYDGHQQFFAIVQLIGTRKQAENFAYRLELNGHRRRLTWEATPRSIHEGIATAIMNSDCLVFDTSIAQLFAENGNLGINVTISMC
- protocol_notes: ITC
reported_metric: pKd
One number for each entry, as −log10 of the molar value.

Query block: Looking for the measured pKd of HRLPKEMAPVEPATFAAELIS [Axin2_(356–368) single mutant T363A] , can you help?
Result block: 5.06
